Attribution: PubChem BioAssay AID1259313

test system: Glutamate receptor ionotropic, NMDA 3A (GRIN3A) ligand-binding domain; assay: binders of NR3A ligand-binding domain, primary screen, biophysical, differential scanning fluorimetry, uHTS (AID 1259313); conditions: NR3A LBD differential scanning fluorimetry, at 25 µM, hits give high values, 0% = protein alone, 100% = glycine-bound protein
The campaign covered roughly 340,000 compounds. About 8,500 (2.5%) were called active. Only a selection was taken, and actives are over-represented in it overall.
Entries and their Tm shift relative to glycine control
endpoint: Tm shift relative to glycine control (%)

> print(dat)
                                    compound                              endpoint  endpoint.value
 1  COc1ccc(CNC(=O)C2CCN(S(=O)(=O)c3ccc(SC)cc3)CC2)cc1  Tm shift relative to glycine control               1
 2             CSC(=S)N/N=C/c1c[nH]c2ccccc12  Tm shift relative to glycine control            30.1
 3  CCC1SC2=NCCN2C1(O)c1ccc(Cl)cc1 (stereo not drawn)  Tm shift relative to glycine control           -1.83
 4  Cc1cc(C)cc(NC(=O)C(c2ccccc2)N2CCN(CC(=O)N3CCCC3)CC2)c1 (stereo not drawn)  Tm shift relative to glycine control           -1.19
 5  Cc1ccc(C)c(NC(=O)C(OC(=O)c2ccc(C)s2)c2ccccc2)c1 (stereo not drawn)  Tm shift relative to glycine control           -6.89
 6                  NC(=O)CSc1c[nH]c2ccccc12  Tm shift relative to glycine control            0.83
 7  CC(C)c1c(C(=O)N/N=C/c2ccccc2C(=O)O)nnn1-c1nonc1N  Tm shift relative to glycine control           -7.76
 8             O=C(NCc1csc(-c2cccs2)n1)C1CC1  Tm shift relative to glycine control            0.25
 9  CCc1ccc(NC(=O)Cn2nc(C)c([N+](=O)[O-])c2C)cc1  Tm shift relative to glycine control           -12.5
10  COc1ccc(CNC(=O)CCCn2nc(C)c([N+](=O)[O-])c2C)cc1  Tm shift relative to glycine control            2.36
11  COCCNc1nc(N)c([N+](=O)[O-])c(N2CCCCCC2)n1  Tm shift relative to glycine control            0.58
12  Nc1c(-c2ccc(F)cc2)cnn1C1CCS(=O)(=O)C1 (stereo not drawn)  Tm shift relative to glycine control           -1.17
13  O=C(N/N=C/c1ccc(Cl)cc1)c1nc2ccc([N+](=O)[O-])cc2c(=O)[nH]1  Tm shift relative to glycine control            1.51
14   N#C/C(=C\N1CCOCC1)S(=O)(=O)c1ccc(Cl)cc1  Tm shift relative to glycine control           -0.42
15  CN(C)Cc1c(O)ccc2occ(C(O)c3ccccc3)c12 (stereo not drawn)  Tm shift relative to glycine control            -0.8
16  O=C(N/N=C/c1ccc([N+](=O)[O-])cc1)c1c[nH]c2ccccc12  Tm shift relative to glycine control            26.3
17  O=C(N/N=C/c1c[nH]c2ccccc12)c1cc2ccccc2o1  Tm shift relative to glycine control            28.7
18  COC(=O)c1ccc(C2C3=C(Nc4nnnn42)c2ccccc2OC3)cc1 (stereo not drawn)  Tm shift relative to glycine control           -8.44
19  CCOC(=O)c1ccc(NC(=O)CS(=O)(=O)c2cn(CC)c3ccccc23)cc1  Tm shift relative to glycine control           -11.8
20             Cc1cc(NC(=O)c2cc3ccccc3o2)no1  Tm shift relative to glycine control            2.81
21      O=C(NN=Cc1ccc([N+](=O)[O-])cc1)C1CC1  Tm shift relative to glycine control           -0.92
22  Nc1nonc1-n1nnc(C(=O)N/N=C/C2CCCCC2)c1-c1ccccc1  Tm shift relative to glycine control            0.68
23  Cc1ccc(Oc2cc(NC(=O)CCCn3nc(C)c([N+](=O)[O-])c3C)cc([N+](=O)[O-])c2)cc1  Tm shift relative to glycine control            14.9
